Data provenance is paper PMC8693751.

- Test system: L. amazonensis promastigotes
- Assay protocol: Leishmanicidal activity against promastigote forms, L. amazonensis
- Format: cell-based, Leishmania amazonensis
- Experimental context: Leishmania amazonensis, 72 h, read-out: Promastigotes IC50L.Ama, 72 hours

| Compound | Target under test | Result unit | IC50 |
| --- | --- | --- | --- |
| CCOC(=O)c1csc(NN=Cc2ccccc2Br)n1 [1f] | L. amazonensis promastigotes | µM | 23.3 |
| CCOC(=O)CC1SC(=NN=Cc2cccc(Br)c2)NC1=O (stereo not shown) [2e] | L. amazonensis promastigotes | µM | 120 |
| CCOC(=O)CC1SC(=NN=Cc2ccccc2O)NC1=O (stereo not shown) [2l] | L. amazonensis promastigotes | µM | 84.3 |
| CCOC(=O)CC1SC(=NN=Cc2ccc(OC)cc2)NC1=O (stereo not shown) [2i] | L. amazonensis promastigotes | µM | 169 |
| CCOC(=O)c1csc(NN=C(C)c2ccccc2)n1 [1g] | L. amazonensis promastigotes | µM | 43 |
| CCOC(=O)CC1SC(=NN=Cc2ccccc2C)NC1=O (stereo not shown) [2n] | L. amazonensis promastigotes | µM | 268 |
| CCOC(=O)c1csc(NN=Cc2ccc(OC)cc2)n1 [1c] | L. amazonensis promastigotes | µM | 392 |
| CCOC(=O)CC1SC(=NN=Cc2ccc(O)c(OC)c2)NC1=O (stereo not shown) [2p] | L. amazonensis promastigotes | µM | 233 |
| CCOC(=O)CC1SC(=NN=Cc2ccc(C)cc2)NC1=O (stereo not shown) [2m] | L. amazonensis promastigotes | µM | 13.3 |
| CCOC(=O)c1csc(NN=Cc2ccccc2Cl)n1 [1b] | L. amazonensis promastigotes | µM | 27.9 |
| CCOC(=O)c1csc(NN=Cc2cccc(Cl)c2)n1 [1a] | L. amazonensis promastigotes | µM | 189 |
| CCOC(=O)CC1SC(=NN=Cc2cccc([N+](=O)[O-])c2)NC1=O (stereo not shown) [2g] | L. amazonensis promastigotes | µM | 309 |
| CCOC(=O)c1csc(NN=Cc2cccc(OC)c2)n1 [1d] | L. amazonensis promastigotes | µM | 159 |

* * *

- Tested on: L. amazonensis promastigotes
- Assay protocol: Leishmanicidal activity against promastigote forms, L. amazonensis
- Format: cell-based, Leishmania amazonensis
- Experimental context: read-out: Promastigotes IC50L.Ama; 72 hours

| Molecule | IC50 [µM] |
| --- | --- |
| CCOC(=O)c1csc(NN=Cc2ccccc2Br)n1 | 24.3 |
